B1: glmS ribozyme (parent)
chain: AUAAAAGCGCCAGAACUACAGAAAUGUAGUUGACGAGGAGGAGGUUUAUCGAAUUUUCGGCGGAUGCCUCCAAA

# Variants of: B1
# procedure.details: self-cleavage kobs at 160 uM GlcN6P; higher = faster cleavage; RNA array
# test.settings: with glucosamine-6-phosphate
Variants at the floor of the assay were thinned out.
experimental.endpoint: self-cleavage kobs at 160 uM GlcN6P (s⁻¹)
Numbers only; they are read as s⁻¹.

- biopolymer.sequence: "AUAAAAGCGCCAGAACUACAGAAAUGUAGUUGACGAGGAGGAGGUUUAUCGAAUUUUCGGCGGAUGGUUCCAAA"
  unit.of.measurement: "s⁻¹"
  quantitative.result: "2.51e-05"
- biopolymer.sequence: "AUAAAAGGGCCAGAACUACAGAAAUGUAGGUGACGAAGAGGAGGUUUAUCGAAUUUUCGGCGGAUACCGCCAAA"
  unit.of.measurement: "s⁻¹"
  quantitative.result: 0.000132
- biopolymer.sequence: "AUAAAAGCGCCUGAACUACAGAAAUGUAGUUGACGAGGAGGAGGUUUAUCGAAAUUUCGGCGGAUGCCACCAAA"
  unit.of.measurement: "s⁻¹"
  quantitative.result: 0.000159
- biopolymer.sequence: "AUAAAAGCGCCAGAAUUACAGAAAUGUAGUUGACGAGGAGGAGGUUUAUCGAAUUUUCGGCGGAUGCCCCCAAA"
  unit.of.measurement: "s⁻¹"
  quantitative.result: 0.000359
- biopolymer.sequence: "AUAAAAGCGCCAGAACUACAGAAAUGUAGUUGACGAGGAGGAGGUAUAUCGAAUUUUCGGCGGACGCCUCCAAA"
  unit.of.measurement: "s⁻¹"
  quantitative.result: "4.37e-05"
- biopolymer.sequence: "AUAAAAGCGCCAGAACUACAGAAAUGUAGUUGACGAGGAGGAGGUUUAUCGAAUUUUGGGCGGAUGCCACCAAA"
  unit.of.measurement: "s⁻¹"
  quantitative.result: "5.46e-05"
- biopolymer.sequence: "AUAAAAGCGCCAGAACUACAGAAAUGUAGUUGACGAGGAGGAGGUUUAUCGAAUUUUCGGCGGAAGCCUCCAAA"
  unit.of.measurement: "s⁻¹"
  quantitative.result: 0.000336
- biopolymer.sequence: "AUAAAAGCGCCAGAACUACAGAAAUGUAUUUGACGAGGAGGAGGUUUACGGAAUUUUCGGCGGAUGCCUACAAA"
  unit.of.measurement: "s⁻¹"
  quantitative.result: "5.5e-05"
- biopolymer.sequence: "AUAAAAGCGCCAGAAUUACAGAAAUGUAGUUGACGAGGUGGAGGUUUAUCGAAUUUUCGGCGGAUGCCUCCAAA"
  unit.of.measurement: "s⁻¹"
  quantitative.result: 0.00114
- biopolymer.sequence: "AUAAAAGCGCCAGAACUACAGAAAUGUAGAUGACGAGGAGGAGGUUUAUCGAUUUUUCGGCGGAUGCCUCCAAA"
  unit.of.measurement: "s⁻¹"
  quantitative.result: 0.00035

Data request, read-out self-cleavage kobs at 160 uM GlcN6P, for `AUAAAAGCGCCGGUUCUACAGAAAUGUAGUUGACGAGGAGGAGGUUUAUCGAAUUUUCGGCGGAUGCCUCCAAA` 4.38e-05

Data request, read-out self-cleavage kobs at 160 uM GlcN6P, for `AUAAAAGCGCCCGAACUACAGAAAUGUAGUUGACGAGGAGGAGGUUUAUCGAAUAUUCGGCGGAUGCCUCCAAA` 0.00192

Data request, read-out self-cleavage kobs at 160 uM GlcN6P, for `AUAAAAGCGCCAGAUCUACAGAAAUGUAGUUGACGAGGAGGAGGUUUAUCGAAUGUUCGGCGGGUGCCUCCAAA` 0.000233

Data request, read-out self-cleavage kobs at 160 uM GlcN6P, for `AUAAAAGCGCCAGAACUACAGAAAUGUAGUUGACGAGGAGGAGGUGUAUCGAAUUUUGGGCGGAUGCCGCCAAA` 6.07e-05

Data request, read-out self-cleavage kobs at 160 uM GlcN6P, for `AUAAAAGCGCCAGUACUACAGAAAUGUAGUUGACGAGGAGGAGGUUUAUCGAAUUUUCGGCGGAUGCCUUCAAA` 0.000441
